# tested-on: T1, CD7-Fc recombinant protein (human, UniProt P09564 26-180)
# T1 construct: also called CD7-Fc protein; human CD7-Fc
# T1 sequence (looked up): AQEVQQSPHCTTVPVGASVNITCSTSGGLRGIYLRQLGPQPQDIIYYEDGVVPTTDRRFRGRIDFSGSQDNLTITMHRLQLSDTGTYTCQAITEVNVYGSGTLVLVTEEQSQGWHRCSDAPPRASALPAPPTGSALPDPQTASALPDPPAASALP
# protocol: flow cytometry, CAR-T cells stained with CD7-Fc protein

binder: anti-CD7 scFv-H10 antibody (scFv, V domains shown, Fully human scFv from the phage library; also called anti-CD7 CAR-H10) VH: QLQLQESGGGLVQPGGSLRLSCAASGFTFSSYAMSWVRQAPGKGLEWVSAISGSGGSTYYADSVKGRFTISRDNSKNTLYLQMNSLRAEDTAVYYCAKGYSGYPAVLDYWGQGTLVTVSS VL: QSALTQPASVSGSPGQSITISCTGTSSDVGGSKYVSWYQQHPGKAPKLMIYDVSYRPSGVSDRFSGSKSGNTASLTISGLQAEDEADYYCSSYTSNSNLPLFGGGTKVTVL
binding result: binds

binder: anti-CD7 scFv-H8 antibody (scFv, V domains shown, Fully human scFv from the phage library) VH: QVQLQESGAGLLKPSETLSLTCAVYGGSISGYYWSWIRQPPGKGLEWIGEINHSGSTNYNPSLKSRVTISVDTSKNQFSLKLSSVTAADTAVYYCARGGGSSGYYLDYWGQGALVTVSS VL: QSVLTQPPSVSEAPRQRVTISCSGSSSNIGNNAVNWYQQLPGKAPKLLIYYDDLLPSGVSDRFSGSKSGTSASLTISGLQSEDGADYYCASWDDSLNGRVFGGGTKLTVL
binding result: binds

binder: anti-CD7 scFv-H5 antibody (scFv, V domains shown, Fully human scFv from the phage library) VH: QVQLVQSGAEVKKPGESLRISCKGSGYSFTSYWISWVRQMPGKGLEWMGRIDPSDSYTNYSPSFQGHVTISADKSISTAYLQWSSLKASDTAMYYCARHPVTNYYYYGMDVWGQGTTVTVSS VL: DIRLTQSPSTVSASIGDRVTITCRASQGISNWLTWYQQKPGKAPKLLIYSASTLQSGVPSRFSGSGSGTDFTLTISSLQPEDFATYYCQQANNLRTLTFGGGTKVDIK
binding result: binds
